Protocol: soluble on expression in E. coli; label from the status in PepcDB or PDB records
Property: soluble on expression in E. coli

seq_text=SSPATPVPPDSILESPFEEMALVRGGWLWRQSSILRRWKRNWFALWLDGTLGYYHDETAQDEEDRVVIHFNVRDIKVGQECQDVQPPEGRSRDGLLTVNLREGSRLHLCAETRDDAIAWKTALMEANSTPAPAGATVPPRSRRVCPKVRCTTLSWNPCKVERRIWVRVYSPYQDYYEVVPPNAHEATYVRSYYGPPYAGPGVTHVIVREDPCYSSGAPLAMGMLAGAATGAALGSLMWSPCWF value_observed="not soluble"
seq_text=MGSDKIHHHHHHMLTASVNEAEPCAEPQRPVIRLHPVTADDAPKLPATRCSTCAIRNVCMPAGLTPIEFARLDAMVCTTRHVKRGDALFRTHDTFQSIYAVRTGSFKTVVMHRDGREQVTGFQIVGETLGLDGVCGGRHNSDAIALEDSTVCIIPFAQLEAVCREVKPMQHHVHQLMSGEIVRESSLMMLLGTMTAEQRVAAFLLNISERFQKRGYSASEFNLRMTREEIGCYLGMKLETVSRMLSKFQRDRLIAPRGKQIRITDPQGLARV value_observed="not soluble"
